// provenance: paper PMC2828537

Target: human TRPA1 endogenously expressed in WI-38 fibroblasts (Homo sapiens, UniProt O75762)
Sequence (O75762 whole entry): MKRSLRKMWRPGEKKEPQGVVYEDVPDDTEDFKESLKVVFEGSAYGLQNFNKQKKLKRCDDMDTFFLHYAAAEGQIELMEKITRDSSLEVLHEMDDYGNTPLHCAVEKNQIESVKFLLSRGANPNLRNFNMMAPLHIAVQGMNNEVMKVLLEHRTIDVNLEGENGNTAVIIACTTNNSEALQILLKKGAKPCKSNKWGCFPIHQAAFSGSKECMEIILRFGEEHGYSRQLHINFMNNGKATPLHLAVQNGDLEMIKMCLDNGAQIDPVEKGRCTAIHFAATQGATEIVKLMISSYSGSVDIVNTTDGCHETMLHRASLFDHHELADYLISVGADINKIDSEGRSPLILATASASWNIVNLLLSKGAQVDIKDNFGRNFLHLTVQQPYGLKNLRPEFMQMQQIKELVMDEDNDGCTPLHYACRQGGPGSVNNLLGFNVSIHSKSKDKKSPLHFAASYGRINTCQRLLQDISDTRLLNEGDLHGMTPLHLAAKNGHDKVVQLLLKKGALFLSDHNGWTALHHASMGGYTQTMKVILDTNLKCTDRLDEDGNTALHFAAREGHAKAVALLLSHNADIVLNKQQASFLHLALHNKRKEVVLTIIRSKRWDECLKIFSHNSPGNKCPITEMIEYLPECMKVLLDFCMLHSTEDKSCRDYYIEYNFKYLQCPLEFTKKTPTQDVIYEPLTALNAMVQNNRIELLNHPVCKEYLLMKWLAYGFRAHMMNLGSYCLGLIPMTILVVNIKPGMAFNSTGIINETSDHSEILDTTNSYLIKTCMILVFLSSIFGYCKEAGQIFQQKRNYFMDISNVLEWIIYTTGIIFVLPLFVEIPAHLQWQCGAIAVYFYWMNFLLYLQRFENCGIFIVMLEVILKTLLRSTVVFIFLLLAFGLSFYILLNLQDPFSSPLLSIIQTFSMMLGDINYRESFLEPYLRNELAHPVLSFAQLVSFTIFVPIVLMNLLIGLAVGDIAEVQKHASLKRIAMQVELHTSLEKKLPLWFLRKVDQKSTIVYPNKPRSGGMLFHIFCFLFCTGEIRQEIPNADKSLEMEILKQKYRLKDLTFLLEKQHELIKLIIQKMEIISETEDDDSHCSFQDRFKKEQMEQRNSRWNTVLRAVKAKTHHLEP
Assay: Whole-cell recordings of WI-38 cells
Format: cell-based
Details: EC50 for FFA-evoked whole-cell currents at +100 mV, +100 mV
Property Measured: EC50 (µM)
The answer is to be given in µM; state only the numeric part.

Look up EC50: O=C(O)c1ccccc1Nc1cccc(C(F)(F)F)c1
44

###

Target: rat TRPA1 (Rattus norvegicus)
Sequence (Q6RI86 whole entry): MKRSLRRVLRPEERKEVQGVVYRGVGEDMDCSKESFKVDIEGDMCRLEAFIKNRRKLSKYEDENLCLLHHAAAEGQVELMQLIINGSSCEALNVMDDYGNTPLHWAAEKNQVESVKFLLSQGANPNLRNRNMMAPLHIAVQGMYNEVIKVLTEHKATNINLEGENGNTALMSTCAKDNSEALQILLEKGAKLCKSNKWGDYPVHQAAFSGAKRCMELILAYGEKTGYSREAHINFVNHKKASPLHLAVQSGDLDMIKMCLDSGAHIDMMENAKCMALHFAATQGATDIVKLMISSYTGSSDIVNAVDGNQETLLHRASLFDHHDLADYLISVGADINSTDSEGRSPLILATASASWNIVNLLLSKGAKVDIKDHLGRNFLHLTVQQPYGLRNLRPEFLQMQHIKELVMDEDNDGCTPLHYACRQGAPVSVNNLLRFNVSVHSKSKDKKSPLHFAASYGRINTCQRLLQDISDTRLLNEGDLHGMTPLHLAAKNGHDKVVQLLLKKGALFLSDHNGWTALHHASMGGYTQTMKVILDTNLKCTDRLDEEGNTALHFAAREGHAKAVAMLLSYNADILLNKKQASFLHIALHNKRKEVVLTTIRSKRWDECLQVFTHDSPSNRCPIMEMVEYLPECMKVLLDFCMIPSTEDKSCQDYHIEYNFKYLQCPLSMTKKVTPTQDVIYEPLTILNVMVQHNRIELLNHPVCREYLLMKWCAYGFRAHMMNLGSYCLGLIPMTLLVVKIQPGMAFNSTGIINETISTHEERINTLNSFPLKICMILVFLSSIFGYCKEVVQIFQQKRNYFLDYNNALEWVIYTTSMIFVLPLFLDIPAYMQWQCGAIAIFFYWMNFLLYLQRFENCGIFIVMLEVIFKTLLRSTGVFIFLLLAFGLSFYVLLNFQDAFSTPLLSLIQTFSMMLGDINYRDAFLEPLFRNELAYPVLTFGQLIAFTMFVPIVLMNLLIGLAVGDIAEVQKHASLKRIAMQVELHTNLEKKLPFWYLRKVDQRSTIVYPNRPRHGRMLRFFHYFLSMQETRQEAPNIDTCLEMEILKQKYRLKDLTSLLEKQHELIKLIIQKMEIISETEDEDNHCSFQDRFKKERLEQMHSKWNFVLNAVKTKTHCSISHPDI
Assay: Two-electrode voltage clamp of Xenopus oocytes expressing rat TRPA1
Assay type: cell-based
Settings: 300 µM
Counter-ions that a name gives are not always drawn.
Property Measured: effect on current in TRPA1-expressing oocytes

Some solved entries appear below for comparison.
CC(C(=O)O)c1ccc(-c2ccccc2)c(F)c1 (racemic) [flurbiprofen, (±)-flurbiprofen]
caused current increases
O=C(c1ccccc1)c1ccc2n1CCC2C(=O)O (stereo not drawn) [ketorolac, ketorolac tromethamine salt]
did not have an effect
COc1ccc2c(c1)c(CC(=O)O)c(C)n2C(=O)c1ccc(Cl)cc1
caused current increases
O=C(O)Cc1ccccc1Nc1c(Cl)cccc1Cl [diclofenac, Diclofenac sodium salt]
caused current increases

Now for another entry.
Fill blank: measured effect on current in TRPA1-expressing oocytes of the molecule COc1ccc2cc([C@H](C)C(=O)O)ccc2c1 [naproxen, (S)-naproxen] is ____.
did not have an effect
